Origin of values: the supplement of paper PMC10307832

Test system: NCI-H1651
Assay: relative viability (nuclei count vs DMSO), 5 days (fraction); higher = more cells survive
Settings: first compound 0.1265 µM
assay_endpoint: relative viability
Respond numerically, and do not add a unit to the figure.

**Q:** Endpoint output: relative viability of Cc1sc2c(c1C)C(c1ccc(Cl)cc1)=N[C@@H](CC(=O)OC(C)(C)C)c1nnc(C)n1-2 [JQ1] + CC(=O)c1c(C)c2cnc(Nc3ccc(N4CCNCC4)cn3)nc2n(C2CCCC2)c1=O [Palbociclib] (partner 0.5 µM) . Value?
**A:** 0.416

**Q:** Note, next up: Cc1sc2c(c1C)C(c1ccc(Cl)cc1)=N[C@@H](CC(=O)OC(C)(C)C)c1nnc(C)n1-2 [JQ1] + N=C(N)NC(=N)NCCc1ccccc1 [Phenformin] (partner 250 µM)
**A:** 0.249

**Q:** Note, next up: Cc1sc2c(c1C)C(c1ccc(Cl)cc1)=N[C@@H](CC(=O)OC(C)(C)C)c1nnc(C)n1-2 [JQ1] + CS(=O)(=O)CCNCc1ccc(-c2ccc3ncnc(Nc4ccc(OCc5cccc(F)c5)c(Cl)c4)c3c2)o1 [Lapatinib] (partner 2 µM)
**A:** 0.706

**Q:** Note, next up: Cc1sc2c(c1C)C(c1ccc(Cl)cc1)=N[C@@H](CC(=O)OC(C)(C)C)c1nnc(C)n1-2 [JQ1] + O=C(c1cc(Cc2n[nH]c(=O)c3ccccc23)ccc1F)N1CCN(C(=O)C2CC2)CC1 [Olaparib] (partner 8 µM)
**A:** 0.173

**Q:** Note, next up: Cc1sc2c(c1C)C(c1ccc(Cl)cc1)=N[C@@H](CC(=O)OC(C)(C)C)c1nnc(C)n1-2 [JQ1] + CC1(C)CCC(c2ccc(Cl)cc2)=C(CN2CCN(c3ccc(C(=O)NS(=O)(=O)c4ccc(N[C@H](CCN5CCOCC5)CSc5ccccc5)c(S(=O)(=O)C(F)(F)F)c4)cc3)CC2)C1 [Navitoclax] (partner 0.5 µM)
**A:** 0.819

----------
System: COR-L23
Experiment: relative viability (nuclei count vs DMSO), 5 days (fraction); higher = more cells survive
Conditions: first compound 0.8 µM
Sorting guide: entries reporting relative viability beneath 0.6 go in the yes pile, the rest go in the no pile.

**Q:** Dear reviewer, please state whether Cc1cnc(-c2cnc(NCCNc3ccc(C#N)cn3)nc2-c2ccc(Cl)cc2Cl)[nH]1 + CC1(C)CCC(c2ccc(Cl)cc2)=C(CN2CCN(c3ccc(C(=O)NS(=O)(=O)c4ccc(N[C@H](CCN5CCOCC5)CSc5ccccc5)c(S(=O)(=O)C(F)(F)F)c4)cc3)CC2)C1 [Navitoclax] (partner 0.5 µM) has relative viability strictly beneath 0.6.
**A:** no

**Q:** Note, next up: O=c1[nH]c2ccccc2n1C1CCN(CCCC(c2ccc(F)cc2)c2ccc(F)cc2)CC1 [Pimozide] + O=C(c1cc(Cc2n[nH]c(=O)c3ccccc23)ccc1F)N1CCN(C(=O)C2CC2)CC1 [Olaparib] (partner 8 µM)
**A:** yes

**Q:** Note, next up: Cc1cnc(-c2cnc(NCCNc3ccc(C#N)cn3)nc2-c2ccc(Cl)cc2Cl)[nH]1 + COc1cccc2cc(-c3nc([C@H]4CC[C@H](C(=O)O)CC4)n4ncnc(N)c34)[nH]c12 [OSI-027] (partner 0.5 µM)
**A:** no

**Q:** Note, next up: O=c1[nH]c2ccccc2n1C1CCN(CCCC(c2ccc(F)cc2)c2ccc(F)cc2)CC1 [Pimozide] + O=C(CCCCCCC(=O)Nc1ccccc1)NO [Vorinostat] (partner 1 µM)
**A:** yes

**Q:** Note, next up: O=c1[nH]c2ccccc2n1C1CCN(CCCC(c2ccc(F)cc2)c2ccc(F)cc2)CC1 [Pimozide] + C[C@@H](Oc1cc(-c2cnn(C3CCNCC3)c2)cnc1N)c1c(Cl)ccc(F)c1Cl [Crizotinib] (partner 1 µM)
**A:** yes

**Q:** Note, next up: Cc1cnc(-c2cnc(NCCNc3ccc(C#N)cn3)nc2-c2ccc(Cl)cc2Cl)[nH]1 + O=C(CCCCCCC(=O)Nc1ccccc1)NO [Vorinostat] (partner 1 µM)
**A:** yes

**Q:** Note, next up: Cc1cnc(-c2cnc(NCCNc3ccc(C#N)cn3)nc2-c2ccc(Cl)cc2Cl)[nH]1 + COc1cc2c(Oc3ccc(NC(=O)C4(C(=O)Nc5ccc(F)cc5)CC4)cc3F)ccnc2cc1OCCCN1CCOCC1 [Foretinib] (partner 0.25 µM)
**A:** no

**Q:** Note, next up: O=c1[nH]c2ccccc2n1C1CCN(CCCC(c2ccc(F)cc2)c2ccc(F)cc2)CC1 [Pimozide] + COc1cc2c(Oc3ccc(NC(=O)C4(C(=O)Nc5ccc(F)cc5)CC4)cc3F)ccnc2cc1OCCCN1CCOCC1 [Foretinib] (partner 0.25 µM)
**A:** no
